# assay_comment: Cell proliferation assay (WST-1) in HepG2 cells
# condition_set: human, HepG2 cells
result_type: viability at 6 h, 30 μM (%)
Reply numerically in %, unit not repeated.

Request: Query: viability at 6 h, 30 μM; subject: O=C(O)Cc1ccccc1Nc1c(Cl)cccc1Cl [diclofenac, diclofenac sodium]
Response: 85

----------
# assay_comment: Cell proliferation assay (WST-1) in HepG2 cells
# condition_set: human, HepG2 cells
result_type: viability at 6 h, 50 μM (%)
Dear colleague, please return just the value in %, with no unit written.

Request: // lookup viability at 6 h, 50 μM for O=C(O)Cc1ccccc1Nc1c(Cl)cccc1Cl [diclofenac, diclofenac sodium]
Response: 75
